Biological target: Thermolysin (Bacillus thermoproteolyticus) (UniProt P00800)
Sequence (P00800 233-548 limits assumed): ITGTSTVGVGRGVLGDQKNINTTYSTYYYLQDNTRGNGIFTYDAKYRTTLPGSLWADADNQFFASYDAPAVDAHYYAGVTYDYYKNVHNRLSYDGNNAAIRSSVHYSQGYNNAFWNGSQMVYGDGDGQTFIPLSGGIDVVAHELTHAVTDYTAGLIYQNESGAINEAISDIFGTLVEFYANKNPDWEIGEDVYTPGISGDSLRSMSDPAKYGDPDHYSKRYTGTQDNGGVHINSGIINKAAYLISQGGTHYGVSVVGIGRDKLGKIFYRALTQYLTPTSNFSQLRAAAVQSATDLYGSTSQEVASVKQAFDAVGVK
Test: Binding constant against thermolysin expressed as negative logarithm
Here the recorded -ln K is given for each entry.

Below, each entry is followed by its recorded -ln K result.
Compound	-ln K
CC(C)CC(OP(=O)(O)CNC(=O)OCc1ccccc1)C(=O)NC(Cc1ccccc1)C(=O)O (stereo not drawn)	9.85
CC(C)CC(OP(=O)(O)CNC(=O)OCc1ccccc1)C(=O)NC(C)C(=O)O (stereo not drawn)	11.2
CC(C)CC(NC(=O)C(CC(C)C)OP(=O)(O)CNC(=O)OCc1ccccc1)C(=O)O (stereo not drawn)	11.6
CC(C)CC(OP(=O)(O)CNC(=O)OCc1ccccc1)C(=O)NCC(=O)O (stereo not drawn)	8.38

Query block: Which -ln K is reported for this compound? CC(C)CC(CP(=O)(O)CNC(=O)OCc1ccccc1)C(=O)NCC(=O)O (stereo not drawn)
Result block: 15

Query block: Which -ln K is reported for this compound? CC(C)CC(CP(=O)(O)CNC(=O)OCc1ccccc1)C(=O)NC(C)C(=O)O (stereo not drawn)
Result block: 17.8

Query block: Which -ln K is reported for this compound? CC(C)CC(N)C(=O)NO (stereo not drawn)
Result block: 8.57

Query block: Which -ln K is reported for this compound? CC(NC(=O)C(Cc1ccccc1)C(=O)NO)C(=O)NCCO (stereo not drawn)
Result block: 14.7

* * *

Experiment: Negative logarithm of minimal inhibitory concentration against human rhinovirus 14
Format: functional
Here the recorded -ln (MIC) is given for each entry.

Below, each entry is followed by its recorded -ln (MIC) result.
Cc1cc(CCCCCOc2ccc(C3=NCCO3)cc2)on1 14.5
Cc1cc(CCCCCOc2ccc(C3=N[C@@H](C)CO3)cc2)on1 14.3
CC[C@H]1COC(c2ccc(OCCCCCCCc3cc(C)no3)cc2)=N1 17.7
Cc1cc(CCCCCOc2ccc(C3=NCCO3)cc2Cl)on1 12.9
Cc1cc(CCCCCCCOc2ccc(C3=N[C@H](C)CO3)cc2)on1 14.7

Query block: Which -ln (MIC) is reported for this compound? `Cc1cc(CCCCCCCOc2ccc(C3=N[C@@H](C)CO3)cc2Cl)on1`
Result block: 15.4

Query block: Which -ln (MIC) is reported for this compound? `Cc1cc(CCCCCCCOc2ccc(C3=NCCO3)cc2)on1`
Result block: 14.3

Query block: Which -ln (MIC) is reported for this compound? `Cc1cc(CCCCCCCOc2ccc(C3=N[C@@H](C)CO3)cc2)on1`
Result block: 17.3
